The reported measurements were obtained from paper PMC10786891.

Target: T1, EsCas13d, nuclease-dead (Eubacterium siraeum, UniProt B0MS50, R295A;H300A;R849A;H854A)
T1 sequence: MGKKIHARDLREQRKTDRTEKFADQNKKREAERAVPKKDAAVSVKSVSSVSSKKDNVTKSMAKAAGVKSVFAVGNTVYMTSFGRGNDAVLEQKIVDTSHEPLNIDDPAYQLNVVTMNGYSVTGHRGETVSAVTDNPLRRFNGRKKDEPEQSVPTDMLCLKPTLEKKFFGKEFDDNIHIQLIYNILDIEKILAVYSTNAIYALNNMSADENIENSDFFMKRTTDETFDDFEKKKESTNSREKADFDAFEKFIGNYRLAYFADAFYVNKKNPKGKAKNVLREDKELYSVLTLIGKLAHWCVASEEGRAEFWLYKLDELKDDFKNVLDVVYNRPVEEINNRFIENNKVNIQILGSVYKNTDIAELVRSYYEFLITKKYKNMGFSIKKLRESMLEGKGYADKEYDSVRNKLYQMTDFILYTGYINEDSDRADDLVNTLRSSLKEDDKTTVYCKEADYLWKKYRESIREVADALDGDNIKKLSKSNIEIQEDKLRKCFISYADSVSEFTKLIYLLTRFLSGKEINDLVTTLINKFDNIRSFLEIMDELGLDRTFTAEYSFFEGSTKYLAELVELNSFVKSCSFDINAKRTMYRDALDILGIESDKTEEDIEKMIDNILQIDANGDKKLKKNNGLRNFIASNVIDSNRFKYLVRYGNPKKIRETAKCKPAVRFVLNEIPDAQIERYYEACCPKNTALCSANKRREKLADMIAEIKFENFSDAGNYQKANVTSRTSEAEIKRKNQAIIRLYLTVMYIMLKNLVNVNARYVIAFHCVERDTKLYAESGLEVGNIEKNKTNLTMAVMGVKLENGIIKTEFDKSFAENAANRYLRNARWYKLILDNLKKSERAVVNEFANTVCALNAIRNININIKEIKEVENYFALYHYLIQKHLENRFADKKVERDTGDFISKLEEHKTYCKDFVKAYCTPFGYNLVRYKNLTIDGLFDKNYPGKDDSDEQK
Test: crRNA (strand 1, pre-loaded); Mg2+; 40 mM Tris-HCl pH 7.5, 150 mM NaCl, 6 mM MgCl2, 1 mM DTT, 0.1% Tween-20, 0.2 mg/ml BSA; 25 C; 10 min per concentration, then washed
Details: tags: His6-TwinStrep-SUMO cleaved; N-terminal SNAP kept (SNAP-Surface 488); label: 3' end held by stalled T7 RNA polymerase
quantity-kind: Kd (nM)
Number in nM, nothing else.

Past entries and their recorded results:
>>> numeric_value("target 2 MT 5'PFS GCC 3'PFS CAU (mixed) RNA 1: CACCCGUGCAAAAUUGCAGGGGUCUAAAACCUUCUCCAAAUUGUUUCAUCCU RNA 2: GGGAAUGGAUCCACAUCUACGAAUUCGCCAGGAUGAAACAAUUUGGAGAAGCAUAGAUCGGAAGAGCACACGU")
14
>>> numeric_value("target 1 MT 5'PFS GUA 3'PFS UAC (mixed) RNA 1: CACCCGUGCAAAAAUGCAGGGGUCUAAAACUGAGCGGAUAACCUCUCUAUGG RNA 2: GGGAAUGGAUCCACAUCUACGAAUUCGUACCAUAGAGAGGUUAUCCGCUCAUACAGAUCGGAAGAGCACACGU")
13.2
>>> numeric_value("target 1 insU 3' of 20,insA 3' of 2 (mixed) RNA 1: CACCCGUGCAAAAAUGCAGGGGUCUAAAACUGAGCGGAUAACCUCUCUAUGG RNA 2: GGGAAUGGAUCCACAUCUACGAAUUCGUACCAUUAGAGAGGUUAUCCGCUCAACCGAGAUCGGAAGAGCACACGU")
12

Memo: target 3 insA 3' of 8,insC 3' of 5 (mixed) RNA 1: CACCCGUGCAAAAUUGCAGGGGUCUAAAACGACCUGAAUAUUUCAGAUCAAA RNA 2: GGGAAUGGAUCCACAUCUACGAAUUCGUUUUUGAUCUGAAAUAUAUCACGGUCUGCAGAUCGGAAGAGCACACGU , reported Kd: 51
